Assay: Half life in FVB mouse at 1 mg/kg, iv
Type: ADME, organism-based
Settings: in vivo
PROPERTY MEASURED: half-life (h)

1. O=S(=O)(Nc1cccc(F)n1)c1cc(F)c(O[C@H]2CCN(CC(F)(F)F)C[C@@H]2c2ccc(F)c(F)c2)c(F)c1 (stereo in doubt; (-)-6)
2. O=S(=O)(Nc1cccc(F)n1)c1cc(F)c(OC2CCN(CC(F)(F)F)CC2c2ccc(F)c(F)c2)cc1F (single isomer, unassigned; (-))
Q: Of 1 and 2 , which shows the smaller half-life value? Identify your pick by its label.
Result: 1
(1: 2.6 h, 2: 4.3 h)

* * *

Biological target: Sodium channel protein type 2 subunit alpha (Homo sapiens, UniProt Q99250)
Assay: Inhibition of human Nav1.2 by V1/2 protocol based analysis
PROPERTY MEASURED: IC50 (µM)
Only the number, expressed in µM, is required.

Q: Give recorded IC50 with Sodium channel protein type 2 subunit alpha (Homo sapiens, UniProt Q99250) for the following compound: O=S(=O)(Nc1cccc(F)n1)c1cc(F)c(O[C@H]2CCN(CC(F)(F)F)C[C@@H]2c2ccc(F)c(F)c2)c(F)c1 (stereo in doubt; (-)-6)
Result: 0.012

* * *

# pIC50 values compiled below
Molecular target: Sodium channel protein type 5 subunit alpha (Homo sapiens)
Experiment: Inhibition of human Nav1.5 by automated voltage clamp electrophysiology
FYI, pIC50 means -log10 of a concentration in mol per litre.

Q: Give Sodium channel protein type 5 subunit alpha (Homo sapiens) pIC50 for O=S(=O)(Nc1cccc(F)n1)c1cc(F)c(O[C@H]2CCN(CC(F)(F)F)C[C@@H]2c2ccc(F)c(F)c2)c(F)c1 (stereo in doubt; (+)-6)
Result: 6.77

Q: Please state recorded pIC50 (tested on Sodium channel protein type 5 subunit alpha (Homo sapiens)) of O=S(=O)(Nc1cccc(F)n1)c1cc(F)c(O[C@H]2CCN(CC(F)(F)F)C[C@@H]2c2ccc(F)cc2)cc1F (racemic)
Result: 6.21

Q: What value of pIC50 on Sodium channel protein type 5 subunit alpha (Homo sapiens) does O=S(=O)(Nc1cccc(F)n1)c1cc(F)c(OC2CCN(CC(F)(F)F)CC2c2ccc(F)c(F)c2)cc1F (single isomer, unassigned; (+)) have?
Result: 6.37

Q: I'm curious: which pIC50 was measured for O=S(=O)(Nc1cccc(F)n1)c1cc(F)c(O[C@H]2CCN(CC(F)(F)F)C[C@@H]2c2ccccc2)cc1F (racemic) tested on Sodium channel protein type 5 subunit alpha (Homo sapiens)?
Result: 6.15

Q: Hello, I am looking for reported pIC50 with Sodium channel protein type 5 subunit alpha (Homo sapiens) for O=S(=O)(Nc1cccc(C(F)(F)F)n1)c1cc(F)c(O[C@H]2CCN(CC(F)(F)F)C[C@@H]2c2ccccc2)cc1F (racemic) . Could you help?
Result: 5.20

* * *

Assay: Half life in FVB mouse at 10 mg/kg, po
Type: ADME, organism-based
Conditions: in vivo
PROPERTY MEASURED: half-life (h)

A. O=S(=O)(Nc1cccc(F)n1)c1cc(F)c(O[C@H]2CCN(CC(F)(F)F)C[C@@H]2c2ccc(F)c(F)c2)c(F)c1 (stereo in doubt; (-)-6)
B. O=S(=O)(Nc1cccc(F)n1)c1cc(F)c(OC2CCN(CC(F)(F)F)CC2c2ccc(F)c(F)c2)cc1F (single isomer, unassigned; (-))
Q: Lab note: check whether A or B shows the higher recorded half-life. Record your answer as the label of the chosen record.
Result: B

* * *

Molecular target: Sodium channel protein type 8 subunit alpha (Homo sapiens)
Sequence (Q9UQD0 whole entry): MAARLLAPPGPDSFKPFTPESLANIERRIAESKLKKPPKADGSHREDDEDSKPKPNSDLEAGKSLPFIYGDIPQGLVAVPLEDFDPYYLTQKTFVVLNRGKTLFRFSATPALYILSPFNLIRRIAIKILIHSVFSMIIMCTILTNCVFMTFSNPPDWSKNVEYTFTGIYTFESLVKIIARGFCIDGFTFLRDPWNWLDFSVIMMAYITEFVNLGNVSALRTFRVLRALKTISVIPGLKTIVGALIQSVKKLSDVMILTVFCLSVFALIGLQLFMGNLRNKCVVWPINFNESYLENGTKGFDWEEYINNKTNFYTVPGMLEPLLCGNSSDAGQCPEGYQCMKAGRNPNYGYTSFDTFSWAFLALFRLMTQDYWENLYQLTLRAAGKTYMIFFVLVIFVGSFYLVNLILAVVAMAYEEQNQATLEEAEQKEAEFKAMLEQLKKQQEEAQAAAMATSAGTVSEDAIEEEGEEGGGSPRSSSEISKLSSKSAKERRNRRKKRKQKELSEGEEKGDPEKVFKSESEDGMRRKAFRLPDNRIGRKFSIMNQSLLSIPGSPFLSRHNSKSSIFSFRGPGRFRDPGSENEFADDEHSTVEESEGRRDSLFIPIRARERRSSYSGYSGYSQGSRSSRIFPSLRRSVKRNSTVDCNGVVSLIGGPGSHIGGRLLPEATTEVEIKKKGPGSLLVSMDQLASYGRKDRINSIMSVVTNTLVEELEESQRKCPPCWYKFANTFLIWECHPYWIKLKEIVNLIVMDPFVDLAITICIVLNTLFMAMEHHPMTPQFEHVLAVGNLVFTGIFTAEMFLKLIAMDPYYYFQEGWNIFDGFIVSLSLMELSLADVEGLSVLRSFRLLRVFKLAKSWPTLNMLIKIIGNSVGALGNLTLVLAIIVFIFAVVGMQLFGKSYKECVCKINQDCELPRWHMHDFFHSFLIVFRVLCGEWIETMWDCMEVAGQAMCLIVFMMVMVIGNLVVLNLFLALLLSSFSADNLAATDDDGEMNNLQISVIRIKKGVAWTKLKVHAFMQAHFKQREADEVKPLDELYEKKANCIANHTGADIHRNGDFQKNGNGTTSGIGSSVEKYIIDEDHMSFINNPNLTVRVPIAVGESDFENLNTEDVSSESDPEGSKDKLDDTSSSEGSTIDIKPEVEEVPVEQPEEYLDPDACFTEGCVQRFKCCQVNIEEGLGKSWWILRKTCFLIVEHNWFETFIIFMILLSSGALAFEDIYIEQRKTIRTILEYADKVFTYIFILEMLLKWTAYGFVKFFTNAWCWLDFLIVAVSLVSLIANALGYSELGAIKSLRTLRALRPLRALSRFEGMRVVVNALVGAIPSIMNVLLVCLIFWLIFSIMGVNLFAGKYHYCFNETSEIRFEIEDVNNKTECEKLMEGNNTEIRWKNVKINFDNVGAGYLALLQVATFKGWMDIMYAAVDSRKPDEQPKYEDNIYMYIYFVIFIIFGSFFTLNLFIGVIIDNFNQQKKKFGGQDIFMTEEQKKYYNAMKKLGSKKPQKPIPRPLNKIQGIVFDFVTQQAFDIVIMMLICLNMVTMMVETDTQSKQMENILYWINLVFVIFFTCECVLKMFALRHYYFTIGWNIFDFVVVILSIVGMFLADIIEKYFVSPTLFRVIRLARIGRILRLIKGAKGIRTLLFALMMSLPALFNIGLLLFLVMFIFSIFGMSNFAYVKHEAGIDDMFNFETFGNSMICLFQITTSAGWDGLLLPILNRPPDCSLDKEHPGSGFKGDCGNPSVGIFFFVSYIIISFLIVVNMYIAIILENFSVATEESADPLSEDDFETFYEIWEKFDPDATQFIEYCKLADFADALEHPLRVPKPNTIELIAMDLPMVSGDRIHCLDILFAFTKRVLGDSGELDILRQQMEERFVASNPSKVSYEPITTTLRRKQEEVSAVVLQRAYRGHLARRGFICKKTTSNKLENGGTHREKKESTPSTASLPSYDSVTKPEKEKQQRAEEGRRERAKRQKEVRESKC
Assay: Inhibition of human Nav1.6 by V1/2 protocol based analysis
PROPERTY MEASURED: IC50 (nM)
Write the number in nM without appending the unit.

Q: Request the reported IC50 associated with O=S(=O)(Nc1cccc(F)n1)c1cc(F)c(O[C@H]2CCN(CC(F)(F)F)C[C@@H]2c2ccc(F)c(F)c2)c(F)c1 (stereo in doubt; (-)-6)
Result: 110

* * *

Molecular target: Sodium channel protein type 2 subunit alpha (Homo sapiens, UniProt Q99250)
Experiment: Inhibition of human Nav1.2 by whole cell voltage clamp analysis
PROPERTY MEASURED: IC50 (µM)
Supply the numeric figure in µM, leaving out any unit text.

Q: IC50 lookup needed for O=S(=O)(Nc1cccc(F)n1)c1cc(F)c(O[C@H]2CCN(CC(F)(F)F)C[C@@H]2c2ccc(F)c(F)c2)c(F)c1 (stereo in doubt; (-)-6) , thanks.
Result: 0.27

* * *

Target: Sodium channel protein type 8 subunit alpha (Homo sapiens)
Test: Inhibition of human Nav1.6 expressed in HEK293 cells by sodium influx assay
Format: cell-based
PROPERTY MEASURED: IC50 (nM)
# output: bare number, implied unit nM

Q: Bench note: what IC50 did O=S(=O)(Nc1cccc(F)n1)c1cc(F)c(O[C@H]2CCN(CC(F)(F)F)C[C@@H]2c2ccc(F)c(F)c2)c(F)c1 (stereo in doubt; (-)-6) show?
Result: 110

* * *

Test: Intrinsic clearance in mouse liver microsomes
Assay type: ADME, Microsome
Settings: read-out: CLH
PROPERTY MEASURED: CLint scaled (mL/min/kg)

Q: # query: CLint scaled of entry O=S(=O)(Nc1cccc(F)n1)c1cnc(O[C@H]2CCN(CC(F)(F)F)C[C@@H]2c2ccc(F)c(F)c2)c(F)c1 (racemic)
Result: 63

Q: # query: CLint scaled of entry O=S(=O)(Nc1cccc(F)n1)c1cc(F)c(O[C@H]2CCN(CC(F)(F)F)C[C@@H]2c2ccccc2F)cc1F (racemic)
Result: 71

Q: Please look up its CLint scaled: O=S(=O)(Nc1cccc(F)n1)c1cc(F)c(O[C@H]2CCN(CC(F)(F)F)C[C@@H]2c2ccc(F)c(F)c2)c(F)c1 (racemic)
Result: 65

Q: Look up CLint scaled for this molecule: O=S(=O)(Nc1cccc(F)n1)c1cc(F)c(OC2CCN(CC(F)(F)F)CC2c2ccc(F)c(F)c2)cc1F (single isomer, unassigned; (-))
Result: 50

Q: # get_value(readout='CLint scaled', item= O=S(=O)(Nc1cccc(F)n1)c1cc(F)c(O[C@H]2CCN(CC(F)(F)F)C[C@@H]2c2ccccc2)cc1F (racemic) )
Result: 70

Q: # get_value(readout='CLint scaled', item= O=S(=O)(Nc1cscn1)c1cc(F)c(O[C@H]2CCN(CC(F)(F)F)C[C@@H]2c2ccc(F)c(F)c2)cc1F (racemic) )
Result: 70

Q: Fill in the blank: the reported CLint scaled of O=S(=O)(Nc1cccc(F)n1)c1cc(F)c(O[C@H]2CCN(CC(F)(F)F)C[C@@H]2c2cccc(F)c2)cc1F (racemic) is ____.
Result: 53

* * *

Biological target: Sodium channel protein type 5 subunit alpha (Homo sapiens)
Assay: Inhibition of human Nav1.5 expressed in HEK293 cells by sodium influx assay
Assay type: cell-based
PROPERTY MEASURED: IC50 (nM)
The response must be a number in nM with no trailing unit.

Q: # get_value(readout= IC50, system= Sodium channel protein type 5 subunit alpha (Homo sapiens)) for O=S(=O)(Nc1cccc(F)n1)c1cc(F)c(O[C@H]2CCN(CC(F)(F)F)C[C@@H]2c2ccc(F)c(F)c2)c(F)c1 (stereo in doubt; (-)-6)
Result: 44

* * *

Target: Sodium channel protein type 5 subunit alpha (Homo sapiens, UniProt Q14524)
Sequence (Q14524 whole entry): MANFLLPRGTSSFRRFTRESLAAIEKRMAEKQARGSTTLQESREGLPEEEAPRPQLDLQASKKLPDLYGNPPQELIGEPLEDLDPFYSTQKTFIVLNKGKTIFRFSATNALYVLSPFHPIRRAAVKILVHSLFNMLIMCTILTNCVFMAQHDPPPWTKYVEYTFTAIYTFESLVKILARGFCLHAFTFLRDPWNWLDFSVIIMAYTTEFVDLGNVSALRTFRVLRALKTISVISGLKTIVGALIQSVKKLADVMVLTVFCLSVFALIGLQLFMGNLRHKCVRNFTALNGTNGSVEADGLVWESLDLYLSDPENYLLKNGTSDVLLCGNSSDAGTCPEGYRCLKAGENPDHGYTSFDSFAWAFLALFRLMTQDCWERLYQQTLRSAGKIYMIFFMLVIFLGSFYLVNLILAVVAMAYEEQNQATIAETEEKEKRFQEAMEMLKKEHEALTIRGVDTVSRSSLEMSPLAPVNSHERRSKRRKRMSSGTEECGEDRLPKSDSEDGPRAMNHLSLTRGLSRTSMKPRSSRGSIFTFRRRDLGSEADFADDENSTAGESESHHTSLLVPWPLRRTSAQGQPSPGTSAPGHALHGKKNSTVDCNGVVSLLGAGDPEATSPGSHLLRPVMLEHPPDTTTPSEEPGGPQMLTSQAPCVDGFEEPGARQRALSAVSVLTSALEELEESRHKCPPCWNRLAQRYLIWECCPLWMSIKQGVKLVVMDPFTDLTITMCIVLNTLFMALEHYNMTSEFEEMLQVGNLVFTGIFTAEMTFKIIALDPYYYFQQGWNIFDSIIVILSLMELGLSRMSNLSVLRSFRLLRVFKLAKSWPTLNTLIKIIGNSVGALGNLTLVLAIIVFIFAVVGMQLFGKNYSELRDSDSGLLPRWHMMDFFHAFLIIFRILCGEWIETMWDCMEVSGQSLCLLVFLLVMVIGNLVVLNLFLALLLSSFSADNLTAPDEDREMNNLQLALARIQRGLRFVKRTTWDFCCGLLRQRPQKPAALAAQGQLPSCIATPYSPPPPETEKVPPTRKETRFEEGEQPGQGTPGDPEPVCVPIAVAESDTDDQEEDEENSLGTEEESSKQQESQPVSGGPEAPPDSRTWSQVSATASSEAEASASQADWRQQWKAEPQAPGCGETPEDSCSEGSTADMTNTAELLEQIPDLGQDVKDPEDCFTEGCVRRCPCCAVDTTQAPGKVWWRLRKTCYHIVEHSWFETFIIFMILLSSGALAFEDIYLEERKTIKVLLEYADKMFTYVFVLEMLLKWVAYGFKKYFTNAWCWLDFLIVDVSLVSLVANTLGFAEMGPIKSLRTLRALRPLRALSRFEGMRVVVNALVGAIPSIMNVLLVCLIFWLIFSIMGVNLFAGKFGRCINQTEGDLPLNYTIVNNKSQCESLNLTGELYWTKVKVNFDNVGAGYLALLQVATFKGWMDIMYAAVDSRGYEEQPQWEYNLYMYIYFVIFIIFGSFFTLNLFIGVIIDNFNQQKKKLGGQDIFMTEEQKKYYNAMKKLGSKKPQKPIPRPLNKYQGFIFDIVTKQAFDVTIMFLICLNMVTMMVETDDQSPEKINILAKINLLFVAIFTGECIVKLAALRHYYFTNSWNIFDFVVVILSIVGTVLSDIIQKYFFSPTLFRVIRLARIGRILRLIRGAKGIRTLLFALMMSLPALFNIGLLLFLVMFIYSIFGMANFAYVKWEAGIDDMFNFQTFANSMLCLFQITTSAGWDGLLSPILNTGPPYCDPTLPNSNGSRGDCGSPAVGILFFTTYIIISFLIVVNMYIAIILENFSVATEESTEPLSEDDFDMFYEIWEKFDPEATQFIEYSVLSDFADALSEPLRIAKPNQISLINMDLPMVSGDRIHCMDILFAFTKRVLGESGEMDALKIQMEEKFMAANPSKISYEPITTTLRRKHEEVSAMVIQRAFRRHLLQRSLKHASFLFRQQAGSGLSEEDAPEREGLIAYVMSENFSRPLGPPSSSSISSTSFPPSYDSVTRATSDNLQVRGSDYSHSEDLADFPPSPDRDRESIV
Assay: Inhibition of human Nav1.5 expressed in HEK293 cells assessed as inhibition of late channel current at holding potential of -95 mV
Assay type: cell-based
PROPERTY MEASURED: IC50 (nM)
Please give a number only; it is taken to be in nM.

Q: Look up IC50 for this molecule: O=S(=O)(Nc1cccc(F)n1)c1cc(F)c(O[C@H]2CCN(CC(F)(F)F)C[C@@H]2c2ccc(F)c(F)c2)c(F)c1 (stereo in doubt; (-)-6)
Result: 15.8

* * *

Experiment: Volume of distribution at steady state in FVB mouse at 1 mg/kg, iv
Type: ADME, organism-based
Settings: in vivo, read-out: Vdss
PROPERTY MEASURED: Vd (L/kg)

Q: I am curious: what Vd value has been reported for O=S(=O)(Nc1cccc(F)n1)c1cc(F)c(O[C@H]2CCN(CC(F)(F)F)C[C@@H]2c2ccc(F)c(F)c2)c(F)c1 (stereo in doubt; (-)-6) ?
Result: 0.8

Q: What does the record list as Vd for O=S(=O)(Nc1cccc(F)n1)c1cc(F)c(OC2CCN(CC(F)(F)F)CC2c2ccc(F)c(F)c2)cc1F (single isomer, unassigned; (-)) ?
Result: 0.6

* * *

Test: Ratio of drug level in brain to plasma in FVB mouse at 10 mg/kg, po measured after 2 hrs
Type: ADME, organism-based
Conditions: read-out: BPR
PROPERTY MEASURED: Kp at 2 h

Q: Consider the compound O=S(=O)(Nc1cccc(F)n1)c1cc(F)c(O[C@H]2CCN(CC(F)(F)F)C[C@@H]2c2ccc(F)c(F)c2)c(F)c1 (stereo in doubt; (-)-6) and give its measured Kp at 2 h.
Result: 0.32

Q: Entry under review: O=S(=O)(Nc1cccc(F)n1)c1cc(F)c(OC2CCN(CC(F)(F)F)CC2c2ccc(F)c(F)c2)cc1F (single isomer, unassigned; (-)) . Reported Kp at 2 h?
Result: 0.28
